target: Signal transducer and activator of transcription 3 (Homo sapiens); experiment: STAT3 activation reporter response, dose response, cell-based (AID 1398)
Active and inactive are the calls of the source. The rule behind the calls is not given here.
recorded endpoint: IC50

API: value(readout= IC50, system= Signal transducer and activator of transcription 3 (Homo sapiens), query= O=C(C1CCCN(S(=O)(=O)c2cccc3cccnc23)C1)N1CCc2ccccc21 (stereo not drawn) ) > 55.7 µM (inactive)

Next compound: `COc1ccc(NC(=O)N2CCn3c2nc2ccccc23)cc1` > 55.7 µM (inactive)

Next compound: `c1ccc2c(CNC3CCCCCC3)c[nH]c2c1` > 55.7 µM (inactive)

Next compound: Cc1c(C(=O)NCc2cccnc2)oc2ccc(S(=O)(=O)N3CC(C)CC(C)C3)cc12 (stereo not drawn) > 55.7 µM (inactive)

Next compound: Cn1nc(-c2ccc(Cl)cc2)c2cc(C(=O)NCC3CCCO3)sc21 (stereo not drawn) > 6.19 µM (inactive)

Next compound: `O=C(Cc1c[nH]c2ccccc12)Nc1nnc(C2CC2)s1` 2.98 µM

Next compound: `Cc1cccc2c1NC(=O)/C2=C\C(=O)c1cccs1` > 18.6 µM (inactive)

Next compound: `O=C(Cc1c[nH]c2ccccc12)Nc1nc2ccccc2[nH]1` 4.98 µM

Attribution: PubChem BioAssay AID1398
